For each of the binders below, state its pEC50.
target: T1, human PILRA G78 on cells (human, UniProt Q9UKJ1 20-303); experiment: flow cytometry on PILRA G78 expressing CHO-K1 cells (FIG. 1H)
T1 construct: wild-type iMicroglia are R78/G78 heterozygous (said in the assay field); also called hPILRA; hPILRA G78
T1 sequence (Q9UKJ1 20-303 R78G limits assumed): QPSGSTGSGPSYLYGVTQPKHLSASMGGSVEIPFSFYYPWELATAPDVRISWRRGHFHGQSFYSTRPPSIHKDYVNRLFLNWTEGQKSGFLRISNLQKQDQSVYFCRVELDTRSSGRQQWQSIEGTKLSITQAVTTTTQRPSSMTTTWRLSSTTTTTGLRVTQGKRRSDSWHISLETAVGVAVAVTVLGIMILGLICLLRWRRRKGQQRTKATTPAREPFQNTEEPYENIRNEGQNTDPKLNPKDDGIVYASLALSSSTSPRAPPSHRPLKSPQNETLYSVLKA
# pEC50 is unitless: minus log10 of the molar concentration; print number only

Q) For Anti-PILRA antibody clone 7 (antibody, V domains shown) VH: EVQLQQSGPELQRPGASVKLSCKASGYTFTEYYMYWVKQRPKQGLELMGRIDPEDGGTDYVEKFKNKATLTADTSSNTAYMQLSSLTSEDTATYFCASTIRGTVFVYWGQGTLVTVSS VL: DIQMTQSPASLSASLGETVTIECRPSEDIYNGLAWYQQKPGESPQLLIYNANSLHTGVPSRFSGSGSGTQYSLKINSLQSEDVASYFCQQYYDYPLTFGSGTKLEIK , what is its reported pEC50?
A) 8.00

Q) For Anti-PILRA antibody clone 15 (antibody, V domains shown, Humanized; also called Ab.15) VH: EVQLVQSGAEVKKPGASVKVSCKASGYTFTEYYMYWVRQAPGQGLELIGRIDPEDGGTDYIEKFKNRSTLTADTSTSTAYLELSSLRSEDTAVYFCATTIRGTVFAFWGQGTLVTVSS VL: DIQMTQSPSSLSASVGDRVTITCRASEDIFNGLAWYQQKPGKSPKLLIYNAKTLHTGVPSRFSGSGSGSDYTLTISSLQPEDFATYFCQQYYDYPLTFGQGTKVEIK , what is its reported pEC50?
A) 8.05

Q) For Anti-PILRA antibody clone 12 (antibody, V domains shown, Humanized; also called Ab.12) VH: EVQLVQSGAEVKKPGASVKVSCKASGYTFTEYYMYWVRQAPGQGLELIGRIDPEDGGTDYIEKFKNRVTITADTSTSTAYLELSSLRSEDTAVYYCATTIRGTVFAFWGQGTLVTVSS VL: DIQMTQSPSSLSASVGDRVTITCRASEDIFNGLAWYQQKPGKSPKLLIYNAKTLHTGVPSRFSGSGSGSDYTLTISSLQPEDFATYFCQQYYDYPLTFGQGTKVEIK , what is its reported pEC50?
A) 7.97

Q) For Anti-PILRA antibody clone 6 (antibody, V domains shown, the printed lines of the VL are out of order there) VH: EVQLQQSGPELQRPGASVKLSCKASGYTFTEYYMYWVKQRPKQGLELIGRIDPEDGGTDYIEKFKNKATLTADTSSNTAYMQLSSLTSEDTATYFCATTIRGTVFAFWGQGTLVTVSS VL: DIQMTQSPASLSASLGETVTIECRASEDIFNGLAWYQQKPGKSPHLLIYNAKTLHTGVPSRFSGSGSGSQYSLKINSLQSEDVASYFCQQYYDYPLTFGSGTKLEIK , what is its reported pEC50?
A) 8.12

Q) For Anti-PILRA antibody clone 23 (antibody, V domains shown, Humanized; also called Ab.23) VH: EVQLVQSGAEVKKPGASVKVSCKASGYTFTEYYMYWVRQAPGQGLELIGRIDPEDGGTDYVEKFKNRATLTADTSTSTAYLELSSLRSEDTAVYFCASTIRGTVFVYWGQGTLVTVSS VL: DIQMTQSPSSLSASVGDRVTITCRPSEDIYNGLAWYQQKPGKAPKLLIYNANSLHTGVPSRFSGSGSGTDYTLTISSLQPEDFATYYCQQYYDYPLTFGQGTKVEIK , what is its reported pEC50?
A) 7.74
